system: OVCAR-8 ovarian; assay: NCI tumour cell line growth inhibition, 48 h
Provide the reported TGI of each item.

Recorded results for 3 compounds are shown here.
CCn1c2ccc(C(=O)CCCN(C)C)cc2c2cc(C(=O)CCCN(C)C)ccc21
7.59 µM
CC(C)N1CCC2(CC1)NNc1ncccc1-n1cccc12
> 100 µM
CCCCCCCC(=O)OCC(C[As](=O)(O)O)OC(=O)CCCCCCC (configuration not stated)
30.3 µM

The following compounds each have a reported value; give each one's TGI.
1. COc1ccc(-c2nn(-c3cccc(Cl)c3)cc2-c2c(C#N)c(=O)n3[nH]c(-c4ccc(C)cc4)nc3c2C#N)cc1
2. COc1ccc(/C=N/n2cnc3c(c2=O)S/C(=C2/SC(=S)N(c4ccc(C)cc4)C2=O)N3c2ccccc2)cc1
3. CSc1nc(SC)c2c(C(N)=S)[nH]nc2n1
4. COc1ccc2nc3cc([N+](=O)[O-])ccc3c(NCCCN(CCO)CCO)c2c1

Completion:
1: 2.99 µM; 2: > 100 µM; 3: > 100 µM; 4: 11.2 µM

The following compounds each have a reported value; give each one's TGI.
1. CCCCCCCCCCCCCCCCCCOc1ccc(/C=C/C2=[N+](CCCl)CCO2)cc1
2. Cc1cc([N+](=O)[O-])ccc1NS(=O)(=O)c1cc(Cl)ccc1Cl
3. C/C(CC(=O)Nc1ccc(Cl)cc1)=N\NC(=O)C[n+]1ccccc1
4. COC(=O)c1ccc(NC(=O)c2cc(OC)c(OC)c(OC)c2)cc1
5. CCOC(=O)C1=CC(C)(C(=O)OCC)Nc2c(nc(SC)n(C)c2=O)N1 (configuration not stated)
6. C=CCCC(On1c(-c2ccc(Cl)cc2)csc1=S)c1ccccc1 (configuration not stated)
7. O=[P+](O)c1cc2ccccc2c2ccccc12

Completion:
1: > 100 µM; 2: > 100 µM; 3: > 100 µM; 4: > 100 µM; 5: > 10 µM; 6: > 100 µM; 7: > 100 µM

The following compounds each have a reported value; give each one's TGI.
1. CC1C2CC(CC2N)C1(C)C (configuration not stated)
2. Cc1ccc(S(=O)(=O)C2c3nc4ccccc4cc3-c3nc4ccccc4nc32)cc1 (configuration not stated)
3. CC(C)=CCCC1(Sc2ccccc2)C(=O)OCC1C=C(C)C (configuration not stated)
4. CCCC(=O)Nc1cc(/C=C/C(=O)N2CC(CCl)c3c2cc([N+](=O)[O-])c2ccccc32)n(C)c1 (configuration not stated)
5. COc1cc(O)c2c(=O)c(OC)c(-c3ccc4c(c3)OCO4)oc2c1OC
6. CC(C)[NH-].CC(C)[NH-].O.O.[Cl][Pt+2][Cl]

Completion:
["> 100 µM", "> 100 µM", "> 100 µM", "> 100 µM", "> 50 µM", "167 µM"]

The following compounds each have a reported value; give each one's TGI.
1. N/C(=N\N=C\c1cc2c(cc1Cl)OCO2)NO
2. O=C(O)c1ccc2c3c(ncnc13)-c1ccccc1C2=O

Completion:
["> 100 µM", "> 100 µM"]

###

tested on: HS 578T breast; assay: NCI tumour cell line growth inhibition, 48 h
PARAMETER MEASURED: TGI

Recorded results for 3 compounds are shown here.
Cc1ccc(C(=O)/C(=C\c2ccc([N+](=O)[O-])cc2)S(=O)Cc2ccc(F)cc2)cc1 (stereo not given)
8.76 µM
O=C(Cc1ccccc1)N=Nc1c(O)[nH]c2ccccc12
> 100 µM
C[n+]1c2ccccc2c(Nc2ccc(NS(=O)(=O)CCCCN=C(N)N)cc2)c2ccc(N)cc21
52.3 µM

The following compounds each have a reported value; give each one's TGI.
1. CCCCCC(O)(CCCCC)CCCCCCCCC1=C(O)c2ccccc2C(=O)C1=O
2. CC1(C)O[C@H]2OC(CO)C(OS(C)(=O)=O)[C@H]2O1 (stereo not given in full)

Completion:
["54.5 µM", "> 100 µM"]
